Target: ACE2 (Homo sapiens, UniProt Q9BYF1)
Construct: purchased Abcam/BioVision ab273373
Sequence (Q9BYF1 18-805): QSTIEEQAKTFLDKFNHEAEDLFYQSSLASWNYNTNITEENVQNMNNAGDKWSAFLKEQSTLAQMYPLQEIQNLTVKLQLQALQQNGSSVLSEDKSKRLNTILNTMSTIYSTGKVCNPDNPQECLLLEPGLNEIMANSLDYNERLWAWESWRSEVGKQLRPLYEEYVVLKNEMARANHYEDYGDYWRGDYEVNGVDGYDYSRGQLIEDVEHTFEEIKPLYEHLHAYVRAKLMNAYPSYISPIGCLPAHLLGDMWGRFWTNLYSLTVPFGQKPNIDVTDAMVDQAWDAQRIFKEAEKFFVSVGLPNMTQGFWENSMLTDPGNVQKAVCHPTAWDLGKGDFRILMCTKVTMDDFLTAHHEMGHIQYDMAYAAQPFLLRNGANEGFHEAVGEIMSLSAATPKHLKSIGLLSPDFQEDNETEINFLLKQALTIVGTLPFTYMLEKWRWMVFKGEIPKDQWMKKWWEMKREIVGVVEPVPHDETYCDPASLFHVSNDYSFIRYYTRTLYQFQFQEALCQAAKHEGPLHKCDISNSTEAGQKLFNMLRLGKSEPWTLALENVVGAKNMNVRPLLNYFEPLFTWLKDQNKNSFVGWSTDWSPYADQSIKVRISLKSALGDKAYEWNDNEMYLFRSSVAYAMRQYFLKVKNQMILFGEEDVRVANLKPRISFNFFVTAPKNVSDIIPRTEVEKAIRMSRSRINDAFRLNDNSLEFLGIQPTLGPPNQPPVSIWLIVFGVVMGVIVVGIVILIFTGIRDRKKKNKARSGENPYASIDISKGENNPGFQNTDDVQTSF
Test: ACE2 inhibition assay (Abcam ACE2 Inhibitor Screening Kit, fluorogenic MCA peptide substrate)
Type: biochemical
Conditions: difference between experimental pIC50 of MLN-4760 and of the compound
Description: Having validated our radiosynthetic approach to (S,S)-[^18F]1 and with various fluorinated MLN-4760 analogues in hand, we next looked to evaluate the inhibitory activity of the analogues using a commercially available ACE2 inhibition assay kit (Table ) (Figure ). […] Consequently, the pIC50 values of the tested compounds were evaluated relative to our experimentally measured value for MLN-4760 in order to identify lead candidates for radiolabeling. […]
I would appreciate it if you labelled entries Yes when pIC50 exp-MLN – pIC50 exp is 0.4 or higher, otherwise No.

Exam item: Reported pIC50 exp-MLN – pIC50 exp reaches at least 0.4 for COc1cc(Cn2cncc2C[C@H](N[C@@H](CC(C)C)C(=O)O)C(=O)O)cc(OCCF)c1 [(S,S)-4] ?
Marked response: No

Exam item: How about this compound: CC(C)C[C@H](N[C@@H](Cc1cncn1Cc1cc(Cl)cc(Cl)c1)C(=O)O)C(=O)O [MLN-4760, reference compound]
Marked response: No

Exam item: How about this compound: CC(C)C[C@@H](N[C@@H](Cc1cncn1Cc1ccc(F)cc1)C(=O)O)C(=O)O [(S,R)-1]
Marked response: Yes

Exam item: How about this compound: CC(C)C[C@H](N[C@@H](Cc1cncn1Cc1ccc(F)cc1)C(=O)O)C(=O)O [(S,S)-1]
Marked response: Yes

Exam item: How about this compound: Cc1cc(F)cc(Cn2cncc2C[C@H](N[C@@H](CC(C)C)C(=O)O)C(=O)O)c1 [(S,S)-2]
Marked response: No

* * *

target: ACE2 (Homo sapiens); construct: purchased Abcam/BioVision ab273373; test: ACE2 inhibition assay (Abcam ACE2 Inhibitor Screening Kit, fluorogenic MCA peptide substrate); format: biochemical
OBSERVATION_TYPE: IC50 (nM)
The reply should contain only the number, in nM.

Exam item: Please report the recorded IC50 for CC(C)C[C@H](N[C@@H](Cc1cncn1Cc1cc(Cl)cc(Cl)c1)C(=O)O)C(=O)O [MLN-4760, reference compound] .
Marked response: 28.8

Exam item: How about this compound: CC(C)C[C@H](N[C@@H](Cc1cncn1Cc1cc(F)cc(Cl)c1)C(=O)O)C(=O)O [(S,S)-3]
Marked response: 24.5

Exam item: How about this compound: Cc1cc(F)cc(Cn2cncc2C[C@H](N[C@@H](CC(C)C)C(=O)O)C(=O)O)c1 [(S,S)-2]
Marked response: 66.1

Exam item: How about this compound: COc1cc(Cn2cncc2C[C@H](N[C@@H](CC(C)C)C(=O)O)C(=O)O)cc(OCCF)c1 [(S,S)-4]
Marked response: 53.7
